- ASSAY SYSTEM: Serine/threonine-protein kinase pim-1 (Homo sapiens) (UniProt P11309);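 also: reported value is the mean inhibition of PIM1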
- Sequence (P11309 whole entry, looked up): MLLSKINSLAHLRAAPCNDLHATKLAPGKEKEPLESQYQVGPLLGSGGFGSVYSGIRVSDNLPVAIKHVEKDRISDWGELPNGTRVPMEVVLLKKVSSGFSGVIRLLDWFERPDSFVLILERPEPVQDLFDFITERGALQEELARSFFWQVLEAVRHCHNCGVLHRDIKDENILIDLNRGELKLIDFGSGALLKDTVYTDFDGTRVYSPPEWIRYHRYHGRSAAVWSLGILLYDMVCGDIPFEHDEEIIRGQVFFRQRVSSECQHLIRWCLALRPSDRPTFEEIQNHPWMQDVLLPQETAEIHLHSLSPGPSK
- CONDITION DETAILS: at 0.1 µM
PARAMETER MEASURED: inhibition (%)
Output spec: scalar in %, unitless text.

Exam item: Query for Serine/threonine-protein kinase pim-1 (Homo sapiens) (UniProt P11309): what inhibition does the record show for CS(=O)(=O)CCNCc1ccc(-c2ccc3ncnc(Nc4ccc(OCc5ccccc5)c(Br)c4)c3c2)o1 ?
Marked response: -0.99

Exam item: Query for Serine/threonine-protein kinase pim-1 (Homo sapiens) (UniProt P11309): what inhibition does the record show for COc1cc(N2CCN(C(C)C)CC2)ccc1Nc1nc(Nc2ccc(F)cc2C(=O)NC[C@@H](O)CO)c2cc[nH]c2n1 ?
Marked response: -0.41

Exam item: Query for Serine/threonine-protein kinase pim-1 (Homo sapiens) (UniProt P11309): what inhibition does the record show for CN(C)CCCNc1nccc(-c2c(-c3ccc(F)cc3)nn3cc(C(F)(F)F)ccc23)n1 ?
Marked response: 0.62

Exam item: Query for Serine/threonine-protein kinase pim-1 (Homo sapiens) (UniProt P11309): what inhibition does the record show for COc1cc2ncn(-c3cc(OCc4ccccc4C(F)(F)F)c(C(C)=O)s3)c2cc1OC ?
Marked response: -0.09

Exam item: Query for Serine/threonine-protein kinase pim-1 (Homo sapiens) (UniProt P11309): what inhibition does the record show for COc1cc(Nc2ncc3c(C)nc(-c4cccc(Oc5ccccc5)c4)n3n2)cc(OC)c1OC ?
Marked response: 0.91

Exam item: Query for Serine/threonine-protein kinase pim-1 (Homo sapiens) (UniProt P11309): what inhibition does the record show for CCc1nccc2c1nc(-c1nonc1N)n2CC ?
Marked response: 0.32

Exam item: Query for Serine/threonine-protein kinase pim-1 (Homo sapiens) (UniProt P11309): what inhibition does the record show for COc1ccc2ncn(-c3cc(O[C@H](C)c4ccccc4Cl)c(C(N)=O)s3)c2c1 ?
Marked response: -0.74

Exam item: Query for Serine/threonine-protein kinase pim-1 (Homo sapiens) (UniProt P11309): what inhibition does the record show for Fc1ccc(-c2nc3n(c2-c2ccncc2)CCS3)cc1 ?
Marked response: 0.77

Exam item: Query for Serine/threonine-protein kinase pim-1 (Homo sapiens) (UniProt P11309): what inhibition does the record show for COc1cc2ncn(-c3cc(OCc4cccs4)c(C(N)=O)s3)c2cc1OC ?
Marked response: 0.81

Exam item: Query for Serine/threonine-protein kinase pim-1 (Homo sapiens) (UniProt P11309): what inhibition does the record show for COc1cc(Nc2ncc(-c3ccccc3)o2)cc(OC)c1OC ?
Marked response: 0.68

Exam item: Query for Serine/threonine-protein kinase pim-1 (Homo sapiens) (UniProt P11309): what inhibition does the record show for Fc1ccc(-c2c(-c3ccncc3)nc3n2CCS3)cc1 ?
Marked response: -0.78

Exam item: Query for Serine/threonine-protein kinase pim-1 (Homo sapiens) (UniProt P11309): what inhibition does the record show for Clc1ccc(CNc2nccc(-c3cnn4ncccc34)n2)cc1 ?
Marked response: 1.63

Exam item: Query for Serine/threonine-protein kinase pim-1 (Homo sapiens) (UniProt P11309): what inhibition does the record show for CN(c1ccc(NC(=O)Nc2c(Cl)cccc2Cl)cc1)c1ccnc(Nc2cccc(CS(C)(=O)=O)c2)n1 ?
Marked response: -0.26

Exam item: Query for Serine/threonine-protein kinase pim-1 (Homo sapiens) (UniProt P11309): what inhibition does the record show for C[C@@H](Oc1cc(-n2cnc3ccc(OC4CCN(C)CC4)cc32)sc1C(N)=O)c1ccccc1Cl ?
Marked response: 16.1

Exam item: Query for Serine/threonine-protein kinase pim-1 (Homo sapiens) (UniProt P11309): what inhibition does the record show for NC(=O)Cc1ccccc1Oc1nccc(-c2c(-c3ccc(F)cc3)ncn2C2CCNCC2)n1 ?
Marked response: 0.4

Exam item: Query for Serine/threonine-protein kinase pim-1 (Homo sapiens) (UniProt P11309): what inhibition does the record show for c1ccc(Oc2ccc(Nc3ncc(-c4ccccc4)o3)cc2)cc1 ?
Marked response: 0.45

Exam item: Query for Serine/threonine-protein kinase pim-1 (Homo sapiens) (UniProt P11309): what inhibition does the record show for CCS(=O)(=O)c1ccc(OC)c(Nc2ncc(-c3ccccc3Cl)o2)c1 ?
Marked response: -0.02

Exam item: Query for Serine/threonine-protein kinase pim-1 (Homo sapiens) (UniProt P11309): what inhibition does the record show for COc1cc(C)c(N(C)C(=O)CN(C)C)cc1Nc1nc(Nc2cccc(F)c2C(N)=O)c2cc[nH]c2n1 ?
Marked response: 1.05

Exam item: Query for Serine/threonine-protein kinase pim-1 (Homo sapiens) (UniProt P11309): what inhibition does the record show for c1ccc(-c2n[nH]cc2-c2ccnc(-c3ccc(OCCN4CCOCC4)cc3)c2)nc1 ?
Marked response: 1.29

Exam item: Query for Serine/threonine-protein kinase pim-1 (Homo sapiens) (UniProt P11309): what inhibition does the record show for CS(=O)(=O)CCNCc1cc(-c2cc3c(Nc4ccc(OCc5cccc(F)c5)c(Cl)c4)ncnc3s2)cs1 ?
Marked response: 1.41

---

- ASSAY SYSTEM: Fibroblast growth factor receptor 1 (Homo sapiens);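 also: values are the mean percent inhibition of FGFR1 across replicate measurements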
- CONDITION DETAILS: at 1 µM
PARAMETER MEASURED: inhibition (%)
Output spec: scalar in %, unitless text.

Exam item: Which inhibition reading was recorded for the compound COc1ccc2cc(-c3c(-c4ccncc4)nc(-c4ccc(S(C)(=O)=O)cc4C)n3C)ccc2c1 ?
Marked response: 6.54

Exam item: Which inhibition reading was recorded for the compound COc1cccc(-n2cnc3c(N/N=C/c4ccncc4)ncnc32)c1 ?
Marked response: -2.61

Exam item: Which inhibition reading was recorded for the compound c1ccc(-c2n[nH]cc2-c2ccnc(-c3ccc(OCCN4CCOCC4)cc3)c2)nc1 ?
Marked response: 5.55

Exam item: Which inhibition reading was recorded for the compound CNC(=O)c1cncc(/C=C/c2c(C)cccc2C)c1 ?
Marked response: -3.96

Exam item: Which inhibition reading was recorded for the compound CS(=O)(=O)CCNCc1cc(-c2cc3c(Nc4ccc(OCc5cccc(F)c5)c(Cl)c4)ncnc3s2)cs1 ?
Marked response: 3.17

Exam item: Which inhibition reading was recorded for the compound CN(C)c1ccc2c(c1)/C(=C/Nc1ccc(S(N)(=O)=O)cc1)C(=O)N2 ?
Marked response: 15.3

Exam item: Which inhibition reading was recorded for the compound O=C(Nc1n[nH]c2nc(-c3ccc(O)cc3)c(Br)cc12)C1CC1 ?
Marked response: 21.4

Exam item: Which inhibition reading was recorded for the compound COc1cc2ncn(-c3cc(OCCc4ccccc4)c(C(N)=O)s3)c2cc1OC ?
Marked response: 2.62

Exam item: Which inhibition reading was recorded for the compound Fc1ccc(-c2ncn(CCCN3CCOCC3)c2-c2ccncc2)cc1 ?
Marked response: -2.73

Exam item: Which inhibition reading was recorded for the compound NC(=O)c1ccc(Oc2nccc(-c3c(-c4ccc(F)cc4)ncn3C3CCNCC3)n2)cc1 ?
Marked response: 8.19

---

- ASSAY SYSTEM: Ribosomal protein S6 kinase alpha-2 (Homo sapiens);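 also: value is the mean inhibition of RSK3 within GSK PKIS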
- CONDITION DETAILS: at 1 µM
Provide the reported inhibition of each item.
Output spec: scalar in %, unitless text.

Exam item: Which inhibition reading was recorded for the compound COc1ccc2cc(-c3c(-c4ccncc4)nc(-c4ccc([S+](C)[O-])cc4C)n3C)ccc2c1 (stereo not given) ?
Marked response: -0.67

Exam item: Which inhibition reading was recorded for the compound NCc1ccc(-n2c(-c3nonc3N)nc3cnccc32)cc1 ?
Marked response: 91.4

Exam item: Which inhibition reading was recorded for the compound COc1cc2ncn(-c3cc(OCCc4ccccc4)c(C(N)=O)s3)c2cc1OC ?
Marked response: 1.86

Exam item: Which inhibition reading was recorded for the compound CCc1nccc2c1nc(-c1nonc1N)n2CC ?
Marked response: 26.9

Exam item: Which inhibition reading was recorded for the compound COc1cccc(/C=N/Nc2ncnc3c2cnn3-c2cccc(OC)c2)c1 ?
Marked response: 2.21

Exam item: Which inhibition reading was recorded for the compound COc1ccc2ncn(-c3cc(O[C@H](C)c4ccccc4Cl)c(C(N)=O)s3)c2c1 ?
Marked response: 1.88

Exam item: Which inhibition reading was recorded for the compound CCc1ccc(Oc2nccc(-c3c(-c4ccc(F)cc4)ncn3C3CCNCC3)n2)cc1 ?
Marked response: 3.54

Exam item: Which inhibition reading was recorded for the compound Fc1ccc(-c2ncn(C3CCNCC3)c2-c2ccnc(Oc3ccc(Oc4ccccc4)cc3)n2)cc1 ?
Marked response: 3.8

Exam item: Which inhibition reading was recorded for the compound O=C(Nc1n[nH]c2nc(-c3ccco3)ccc12)C1CC1 ?
Marked response: 1.46

Exam item: Which inhibition reading was recorded for the compound C[C@@H](Oc1cc(-n2cnc3ccc(OCC4CCN(C)CC4)cc32)sc1C(N)=O)c1ccccc1Cl ?
Marked response: 22.4

Exam item: Which inhibition reading was recorded for the compound O=C1Nc2ccccc2/C1=C/Nc1ccc(-n2cncn2)cc1 ?
Marked response: 14.2

Exam item: Which inhibition reading was recorded for the compound O=C(Nc1n[nH]c2cc(-c3ccccc3)ccc12)C1CC1 ?
Marked response: 3.36

Exam item: Which inhibition reading was recorded for the compound c1ccc(-c2n[nH]cc2-c2ccnc(-c3ccc(OCCN4CCOCC4)cc3)c2)nc1 ?
Marked response: -0.56

Exam item: Which inhibition reading was recorded for the compound O=C(Nc1n[nH]c2cc(-c3cc(F)ccc3F)ccc12)C1CC1 ?
Marked response: 3.43

Exam item: Which inhibition reading was recorded for the compound C[C@@H](Oc1cc(-n2cnc3ccc(OC4CCN(C)CC4)cc32)sc1C(N)=O)c1ccccc1Cl ?
Marked response: 20.2

Exam item: Which inhibition reading was recorded for the compound COc1cc2ncn(-c3cc(OCc4cccs4)c(C(N)=O)s3)c2cc1OC ?
Marked response: 9.31

Exam item: Which inhibition reading was recorded for the compound COc1cc(Nc2ncc(-c3ccccc3)o2)cc(OC)c1OC ?
Marked response: 6.88

Exam item: Which inhibition reading was recorded for the compound NC(=O)c1cc(-c2ccncc2)cc(-c2ccccc2)c1N ?
Marked response: 2.57

Exam item: Which inhibition reading was recorded for the compound O=C(Nc1ccc(Oc2ccc3[nH]c(NC(=O)c4ccccc4)nc3c2)cc1)Nc1cc(C(F)(F)F)ccc1F ?
Marked response: 20.5

Exam item: Which inhibition reading was recorded for the compound C/C(Nc1ccc(S(N)(=O)=O)cc1)=C1/C(=O)Nc2ccccc21 ?
Marked response: 23.4

Exam item: Which inhibition reading was recorded for the compound Fc1ccc(-c2ncn(C3CCNCC3)c2-c2ccnc(Oc3ccc(F)c(F)c3)n2)cc1 ?
Marked response: 2.42

Exam item: Which inhibition reading was recorded for the compound COc1cc(C)c(N(C)C(=O)CN(C)C)cc1Nc1nc(Nc2cccc(F)c2C(N)=O)c2cc[nH]c2n1 ?
Marked response: 2.69

Exam item: Which inhibition reading was recorded for the compound NS(=O)(=O)c1ccc(N/N=C2\C(=O)Nc3ccc(C(=O)NCCCn4ccnc4)cc32)cc1 ?
Marked response: 12.8

Exam item: Which inhibition reading was recorded for the compound CN1CCN(CCCNc2nc3ccc(Oc4ccc(NC(=O)Nc5cc(C(F)(F)F)ccc5F)cc4)cc3[nH]2)CC1 ?
Marked response: 2.27

Exam item: Which inhibition reading was recorded for the compound Cc1ccc(C(=O)NC2CCC2)cc1-c1ccc(C(=O)NCC2CC2)cc1 ?
Marked response: 2.68

Exam item: Which inhibition reading was recorded for the compound COC(=O)Nc1nc2ccc(Sc3ccc(NC(=O)Nc4cc(C(F)(F)F)ccc4F)cc3)cc2[nH]1 ?
Marked response: 2.97

Exam item: Which inhibition reading was recorded for the compound Fc1ccc(-c2ncn(C3CCNCC3)c2-c2ccnc(Oc3ccc4c(c3)OCO4)n2)cc1 ?
Marked response: 4.39

Exam item: Which inhibition reading was recorded for the compound COc1cc(Nc2ncc3c(C)nc(-c4cccc(Oc5ccccc5)c4)n3n2)cc(OC)c1OC ?
Marked response: 14.4

Exam item: Which inhibition reading was recorded for the compound NS(=O)(=O)c1ccc(Nc2cc(-c3ccc(O)c(F)c3)n[nH]2)cc1 ?
Marked response: 63.5

Exam item: Which inhibition reading was recorded for the compound N#Cc1ccc(Oc2nccc(-c3c(-c4ccc(F)cc4)ncn3C3CCNCC3)n2)cc1 ?
Marked response: 3.07

Exam item: Which inhibition reading was recorded for the compound CCS(=O)(=O)c1ccc(OC)c(Nc2ncc(-c3cccc(-c4ccccc4F)c3)o2)c1 ?
Marked response: 2.3

Exam item: Which inhibition reading was recorded for the compound COc1ccc(C2=C(N3CCc4ccccc43)C(=O)NC2=O)cc1 ?
Marked response: 3.86

Exam item: Which inhibition reading was recorded for the compound COc1cc(Nc2ncc3c(C)nc(-c4cccc(C(F)(F)F)c4)n3n2)cc(OC)c1OC ?
Marked response: 37.1

Exam item: Which inhibition reading was recorded for the compound Cc1ccc(C(=O)NC(C)C)cc1-c1ccc(C(=O)NCC2CC2)cc1 ?
Marked response: 0.47

Exam item: Which inhibition reading was recorded for the compound Clc1ccc(CNc2nccc(-c3cnn4ncccc34)n2)cc1 ?
Marked response: 0.33
